Source listed as BindingDB's records for doi:10.1021/acsmedchemlett.9b00051.

- PROTOCOL_DESCRIPTION: Positive allosteric modulator activity at human T1R2/T1R3 expressed in PEAKrapid cells assessed as potentiation of sucrose-induced intracellular calcium influx by measuring sucrose EC50 at 30 uM measured for 120 secs by fluorescence based assay (Rvb = 31.7 mM)
Below, each entry is listed with its recorded EC50.
MEASURE: EC50 (mM)

ITEM_SMILES	UNIT_ABBREVIATION	OBS_VALUE
Nc1c(NC(=O)CC[C@H](Cc2ccccc2)NC(=O)[C@@H](N)C2CCCCC2)cncc1C(=O)O	mM	8.5
CC(C)CNC(=O)C(=O)NCc1ccc(-c2cncc(C(=O)O)c2N)o1	mM	26.5
Nc1c(C(=O)O)cncc1-c1ccc(CNC(=O)[C@@H](N)C2CCCCC2)o1	mM	5.8
CC(C)[C@@H](CCC(=O)Nc1cncc(C(=O)O)c1N)NC(=O)[C@@H](N)C1CCCCC1	mM	10.5
CC(C)C[C@@H](CC(=O)Nc1cncc(C(=O)O)c1N)NC(=O)[C@@H](N)C1CCCCC1	mM	22.7
CC(C)CNC(=O)NCc1ccc(-c2cncc(C(=O)O)c2N)o1	mM	21.6
Cc1nc2ccccc2c(N)c1C(=O)O	mM	15.9
